Every entry's value here was drawn from PubChem BioAssay AID2540.

- TARGET_OR_SYSTEM: Sentrin-specific protease 8 (Homo sapiens) (UniProt Q96LD8)
- Sequence (Q96LD8 whole entry, looked up): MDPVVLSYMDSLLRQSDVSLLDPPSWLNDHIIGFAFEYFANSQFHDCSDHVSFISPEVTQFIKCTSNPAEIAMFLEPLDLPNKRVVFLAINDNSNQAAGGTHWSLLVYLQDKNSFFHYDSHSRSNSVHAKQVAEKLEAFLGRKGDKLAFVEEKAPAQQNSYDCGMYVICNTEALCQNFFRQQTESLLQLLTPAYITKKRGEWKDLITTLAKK
- MEASUREMENT_PROTOCOL: blockers of human SENP8 peptidase activity – biochemical, luminescence, primary screen (AID 2540)
- MEASUREMENT_CONTEXT: purified SENP8, Z-RLRGG-aminoluciferin cleavage, at 10 µM
Screen size: about 330,000 compounds; about 4,100 (1.2%) were called active. Cut-off read from the data, not from the text of the source: active = inhibition above about 50%; inactive = the rest. Many of the other results were omitted from the sample, so actives are more common in it than they were.
Permitted responses: active, inactive

[
  {
    "COMPOUND": "Cc1noc(C)c1COC(=O)COc1ccc(-c2ccccc2)cc1",
    "TARGET_OR_SYSTEM": "Sentrin-specific protease 8 (Homo sapiens) (UniProt Q96LD8)",
    "CLASSIFICATION": "inactive"
  },
  {
    "COMPOUND": "O=C(COC(=O)c1ccncc1)c1ccccc1",
    "TARGET_OR_SYSTEM": "Sentrin-specific protease 8 (Homo sapiens) (UniProt Q96LD8)",
    "CLASSIFICATION": "inactive"
  },
  {
    "COMPOUND": "COc1ccc(C(=O)Nc2cc(C)ccc2NC(=O)COc2ccccc2)cc1",
    "TARGET_OR_SYSTEM": "Sentrin-specific protease 8 (Homo sapiens) (UniProt Q96LD8)",
    "CLASSIFICATION": "inactive"
  },
  {
    "COMPOUND": "CCC(Cc1ccccc1)NC(=O)C1CCCCC1 (configuration not stated)",
    "TARGET_OR_SYSTEM": "Sentrin-specific protease 8 (Homo sapiens) (UniProt Q96LD8)",
    "CLASSIFICATION": "inactive"
  },
  {
    "COMPOUND": "Cc1ccc(-c2nc(-c3ccncc3)no2)c(C)c1",
    "TARGET_OR_SYSTEM": "Sentrin-specific protease 8 (Homo sapiens) (UniProt Q96LD8)",
    "CLASSIFICATION": "inactive"
  }
]

# input Tell me the recorded outcome of this test for Clc1ccc(-n2nnnc2-c2cnc(-c3ccccn3)nc2-c2cccs2)cc1 .
# output inactive

# input Would you mind telling me which call this test gave c1ccc(CCc2nc(-c3ccncc3)no2)cc1 ?
# output inactive

# input Given c1csc(-c2nc(-c3ccncc3)no2)c1 , state the outcome it received in this test.
# output active

# input What was the test verdict on COc1ccc(C(=O)Nc2ccc(F)cc2F)cc1 ?
# output active

# input What did this assay record as the result for CC(=O)N1CC(C)c2scc(C)[n+]2-c2ccccc21 (configuration not stated) ?
# output inactive

# input Would you mind telling me which call this test gave CCN(CC)CCNc1nc(-c2ccc(OC(F)F)cc2)c(C)s1 ?
# output inactive

# input Which outcome was assigned to CCOC(=O)c1sc(N(Cc2ccccc2)C(=O)CN2C(=O)CN(C)C2=O)nc1C in this test?
# output inactive
